The origin of these recorded values is patent US10988459B2.

molecular target: human RIP1 kinase domain (2-375) (Homo sapiens (Human)); experiment: biochemical; assay type: biochemical; settings: tight-binding apparent inhibition constant; human RIP1 kinase domain (2-375) 50 nM, 50 uM ATP, 2 hours; read-out: Ki
The entries below come with measured Ki values attached.
READOUT LABEL: Ki

• CN1C(=O)[C@@H](NC(=O)c2nc3n(n2)C(C2CCCCC2)CCC3)COc2ccccc21 (stereo partly shown) = 10.8 nM
• CN1C(=O)C(NC(=O)c2ncn(Cc3ccccc3)n2)CCn2nc(C(C)(C)F)cc21 (single isomer, unassigned) [Example 369] = 345 nM
• Cc1cc2n(n1)CC[C@H](NC(=O)c1ncn(CC3(C)CCCC3)n1)C(=O)N2C = 130 nM
• Cc1cc2n(n1)CC[C@H](NC(=O)c1ncn(Cc3cccnc3C)n1)C(=O)N2C = 730 nM
• CC(O)c1cc2n(n1)CC[C@H](NC(=O)c1ncn(Cc3ccccc3)n1)C(=O)N2C (single isomer, unassigned) [Example 368] = 154 nM
• Cc1cc2n(n1)CC[C@H](NC(=O)c1ncn(C[C@H]3C[C@H](C(F)(F)F)C3)n1)C(=O)N2C = 110 nM
• CN1C(=O)[C@@H](NC(=O)c2ncn(C[C@H]3C[C@H](C(F)(F)F)C3)n2)CCn2nccc21 = 110 nM

* * *

target: human RIP1 kinase domain (2-375) (Homo sapiens (Human), UniProt Q13546); experiment: biochemical; assay type: biochemical; conditions: tight-binding apparent inhibition constant; human RIP1 kinase domain (2-375) 50 nM, 50 uM ATP, 2 hours; read-out: Ki
Sequence (Q13546 2-375): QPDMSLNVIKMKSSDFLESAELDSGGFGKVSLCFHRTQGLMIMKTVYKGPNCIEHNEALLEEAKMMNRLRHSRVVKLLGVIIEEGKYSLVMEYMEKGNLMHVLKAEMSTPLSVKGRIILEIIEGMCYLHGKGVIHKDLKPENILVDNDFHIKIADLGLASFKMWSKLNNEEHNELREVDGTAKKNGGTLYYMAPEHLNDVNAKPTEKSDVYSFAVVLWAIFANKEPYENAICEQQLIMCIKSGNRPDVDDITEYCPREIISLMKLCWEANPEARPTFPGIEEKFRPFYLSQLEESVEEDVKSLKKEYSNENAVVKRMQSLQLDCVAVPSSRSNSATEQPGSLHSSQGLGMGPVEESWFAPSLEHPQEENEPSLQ
Rule: Ki below 70 nM gives true (1). Equal to or above 70 nM gives false (0).

• CCC1CCCc2nc(C(=O)N[C@H]3CCn4nccc4N(C)C3=O)nn21 (stereo partly shown) [Example 379] = false (0)
• Cc1cc2n(n1)CC[C@H](NC(=O)c1ncn(Cc3ccccc3)n1)C(=O)N2 [Example 586] = true (1)
• CN1C(=O)[C@@H](NC(=O)c2ncn(Cc3ncccc3Cl)n2)CCn2nc(C3CC3)cc21 [Example 658] = true (1)
• Cn1cc(-c2cccc3nc(C(=O)N[C@H]4COc5cc(F)cc(F)c5NC4=O)nn23)cn1 [Example 421] = true (1)
• O=C(N[C@H]1COc2cc(F)cc(F)c2NC1=O)c1ncc2c(n1)C1(CCC1)OC2 [Example 617] = true (1)
• CN1C(=O)[C@H](NC(=O)c2ncn(Cc3c(F)cccc3F)n2)CCn2ccnc21 [Example 602] = true (1)
• CN1C(=O)[C@@H](NC(=O)c2nc3n(n2)C(c2ccccc2)CCC3)CCn2nccc21 (stereo partly shown) [Example 380] = false (0)
• CN1C(=O)[C@H](NC(=O)c2ncn(Cc3ccccc3)n2)CCn2nc([C@H]3CC3(F)F)cc21 (racemic) [Example 674] = false (0)
• Cc1cc2n(n1)CC[C@H](NC(=O)c1ncn(CC3CCCCO3)n1)C(=O)N2C (stereo partly shown) [Example 476] = false (0)
• CN1C(=O)[C@H](NC(=O)c2ncn(Cc3ccccc3)n2)CCn2nc([C@@H]3CC3(F)F)cc21 (stereo in doubt) [Example 675] = true (1)
• O=C(N[C@H]1COc2cc(F)cc(F)c2NC1=O)c1nc2n(n1)CCO[C@@H]2c1ccccc1 [Example 641] = false (0)
• O=C(N[C@H]1COc2cc(F)cc(F)c2NC1=O)c1nc2n(n1)[C@@H](c1ccccc1)CC2 [Example 621] = true (1)
• CC[C@H]1C[C@H](Cn2cnc(C(=O)N[C@H]3CCn4nc(C)cc4N(C)C3=O)n2)C1 [Example 501] = true (1)
• Cc1cccnc1Cn1cnc(C(=O)N[C@H]2CCn3nc(C4CC4)cc3N(C)C2=O)n1 [Example 648] = false (0)
• Cc1cc2n(n1)CC[C@H](NC(=O)c1nc3n(n1)CCCC3c1ccccc1)C(=O)N2C (stereo partly shown) [Example 554] = false (0)
• CC[C@@]1(C)OCc2cnc(C(=O)N[C@H]3CCn4nc(C)cc4N(C)C3=O)nc21 (racemic) [Example 687] = false (0)
